tested on: A549 NSCLC; experiment: NCI tumour cell line growth inhibition, 48 h
Kindly supply the reported TGI values for the records listed here.

Query: Dear colleague, I am looking for the recorded TGI of the following compound: `O=C(O)CNCCc1ccccc1`
Response: > 100 µM

Query: Dear colleague, I am looking for the recorded TGI of the following compound: `O=C1CCSc2nc(-c3ccc4c(c3)OCO4)nn21`
Response: > 10 µM

Query: Dear colleague, I am looking for the recorded TGI of the following compound: CSC1=C(C#N)C(=O)N(c2ccc(C)cc2)C(=O)C1C#N (centres undefined)
Response: > 100 µM

Query: Dear colleague, I am looking for the recorded TGI of the following compound: c1ccc2nn(C3CCCO3)nc2c1 (centres undefined)
Response: > 100 µM

* * *

system: SW-620 colon; assay: NCI tumour cell line growth inhibition, 48 h
MEASURED ATTRIBUTE: TGI

Query: Dear colleague, I am looking for the recorded TGI of the following compound: `c1ccc2cc(CNCCCCNCCCNCc3ccc4ccccc4c3)ccc2c1`
Response: 0.915 µM

Query: Dear colleague, I am looking for the recorded TGI of the following compound: `CCCn1c(=O)c2nn3c(=O)n(CCC)c(=O)c3nn2c1=O`
Response: > 100 µM

Query: Dear colleague, I am looking for the recorded TGI of the following compound: `O=C([O-])CCc1ccccc1.O=C([O-])CCc1ccccc1.O=C([O-])CCc1ccccc1.O=C([O-])CCc1ccccc1.[Mo+2].[Mo+2]`
Response: > 100 µM

Query: Dear colleague, I am looking for the recorded TGI of the following compound: `CN1CC=C(c2cccn2C)CC1`
Response: > 100 µM

Query: Dear colleague, I am looking for the recorded TGI of the following compound: `COc1cc2c(cc1O)Cc1c-2[n+](C)cc2cc(OC)c(OC)cc12`
Response: > 100 µM

Query: Dear colleague, I am looking for the recorded TGI of the following compound: CC(C)CC(NC=O)C(=O)NC(Cc1ccccc1)NC(=O)CNC(=O)C(C)NC(=O)C(N)Cc1ccc(O)cc1 (stereo unspecified)
Response: > 100 µM

Query: Dear colleague, I am looking for the recorded TGI of the following compound: `O=c1nc(N2CCCC2)nc(N2CCCC2)s1`
Response: > 100 µM

Query: Dear colleague, I am looking for the recorded TGI of the following compound: OCC1OC(n2cnc3c(SCc4ccccc4)ncnc32)C(O)C1O (stereo unspecified)
Response: > 100 µM

Query: Dear colleague, I am looking for the recorded TGI of the following compound: `FC(F)(F)c1cc(-c2ncn(/C=C\c3nnco3)n2)cc(C(F)(F)F)c1`
Response: > 43.1 µM

Query: Dear colleague, I am looking for the recorded TGI of the following compound: C=C1CC(C)(COc2cc(=O)oc3ccccc23)OC1=O (stereo unspecified)
Response: 11.4 µM

Query: Dear colleague, I am looking for the recorded TGI of the following compound: `CCOC(=O)c1cn(CC)c2ccc3ccsc3c2c1=O`
Response: > 100 µM

Query: Dear colleague, I am looking for the recorded TGI of the following compound: `CC(=O)Oc1ccc(Nn2c3ccccc3c3ccccc32)c(C)c1`
Response: 79.9 µM

Query: Dear colleague, I am looking for the recorded TGI of the following compound: `NC(=S)N/N=C(\CCC(=O)Nc1ccccc1[N+](=O)[O-])CC(=O)c1ccco1`
Response: > 100 µM

Query: Dear colleague, I am looking for the recorded TGI of the following compound: O=C(c1ccccc1)C(Nc1ccc2ccccc2c1)c1ccccc1 (stereo unspecified)
Response: > 100 µM

Query: Dear colleague, I am looking for the recorded TGI of the following compound: COCC12CCC(OC)C34C5CC6(O)C(OC)C=C(C5C6OC(=O)c5ccccc5)C(C(OC)C13)C4N(C)C2 (stereo unspecified)
Response: > 100 µM

Query: Dear colleague, I am looking for the recorded TGI of the following compound: `O=C1/C(=C\c2ccccc2)CN(C(=O)c2ccccc2)C/C1=C\c1ccccc1`
Response: 3.04 µM

Query: Dear colleague, I am looking for the recorded TGI of the following compound: CCN(CC)CC(O)COc1c(Br)c(Br)c(Br)c2c1OC(C)(C)C2 (stereo unspecified)
Response: 4.92 µM

Query: Dear colleague, I am looking for the recorded TGI of the following compound: `O=c1oc2ccc3ccccc3c2cc1-c1cn2c(n1)sc1ccccc12`
Response: > 100 µM

Query: Dear colleague, I am looking for the recorded TGI of the following compound: `O=C1CCCC2=C1CC1=C(CCCC1=O)N2c1ccc([N+](=O)[O-])cc1`
Response: > 100 µM

Query: Dear colleague, I am looking for the recorded TGI of the following compound: CN(C)CC1CCCCCCCCCCCCC(CN(C)C)C1=O (stereo unspecified)
Response: 20.6 µM

Query: Dear colleague, I am looking for the recorded TGI of the following compound: `COc1ncc(-c2ccc3nccc(C#CCN4CCN(S(C)(=O)=O)CC4)c3c2)cc1NS(=O)(=O)c1ccc(F)cc1F`
Response: 2.23 µM

Query: Dear colleague, I am looking for the recorded TGI of the following compound: `O=C(c1cccs1)c1nc2cc(Cl)ccc2[n+]([O-])c1C(F)(F)F`
Response: > 100 µM

Query: Dear colleague, I am looking for the recorded TGI of the following compound: `O=C1NC(=O)C(c2ccccc2)=C1Nc1ccccc1`
Response: > 25 µM

Query: Dear colleague, I am looking for the recorded TGI of the following compound: `O=c1nc2c(c(-c3ccc(F)cc3)[nH]1)COC/C2=C\c1ccc(F)cc1`
Response: > 100 µM

Query: Dear colleague, I am looking for the recorded TGI of the following compound: C=C(COC(C)=O)CC(/C=C(\C)CC/C=C(\C)CO)OC(C)=O (stereo unspecified)
Response: > 100 µM

Query: Dear colleague, I am looking for the recorded TGI of the following compound: `CC(=O)N(CCN1C(=O)c2ccccc2C1=O)CCN1C(=O)c2ccccc2C1=O`
Response: > 100 µM

Query: Dear colleague, I am looking for the recorded TGI of the following compound: `Cc1cc2c(cc1C)[n+](=O)c(C(=O)CC(=O)C(=O)Nc1ccccc1C(C)C)c(C)n2[O-]`
Response: > 100 µM

Query: Dear colleague, I am looking for the recorded TGI of the following compound: O=C(O)CCC1CCc2cccc(OCC(=O)O)c2C1=O (stereo unspecified)
Response: > 100 µM

Query: Dear colleague, I am looking for the recorded TGI of the following compound: `C=C(CCC/C(C)=C/C=C/[C@H](C)CCCc1ccoc1)C[C@@H]1OC(=O)[C@H](C)[C@@H]1O`
Response: 26.7 µM

Query: Dear colleague, I am looking for the recorded TGI of the following compound: CS(=N)(=O)CCC(N)P(=O)(O)O (stereo unspecified)
Response: > 100 µM

Query: Dear colleague, I am looking for the recorded TGI of the following compound: `c1ccc(-c2cn(-c3ccccc3)c(-c3ccccc3)n2)cc1`
Response: 3.83 µM
